details: buffer; pH 7.4; 200.0 µM
quantity-name: solubility kinetic

Query: Looking for the measured solubility kinetic of COc1ccc(OC)c(C(=O)/C=C/c2cccnc2)c1 , can you help?
Response: > 40.4 µg/mL

Query: Looking for the measured solubility kinetic of OCC[NH+](CCO)CC(O)COc1ccc(Br)cc1.[Cl-] (stereo not drawn) , can you help?
Response: > 55.6 µg/mL

Query: Looking for the measured solubility kinetic of CCN(CC)S(=O)(=O)c1nnc(NC(=O)c2ccco2)s1 , can you help?
Response: > 49.6 µg/mL

---

settings: buffer; pH 7.4; 200.0 µM
Please note: t applies when solubility kinetic is 30 µg/mL or greater, and f applies otherwise.

Query: I'd appreciate it if you could say whether COc1ccc(N2CC(C(=O)Nc3cccnc3)CC2=O)cc1 (stereo not drawn) has solubility kinetic at least equal to 30 µg/mL.
Response: t

Query: I'd appreciate it if you could say whether Cc1cc(C(=O)NC(=S)Nc2cccc(C(=O)O)c2C)ccc1[N+](=O)[O-] has solubility kinetic at least equal to 30 µg/mL.
Response: t

Query: I'd appreciate it if you could say whether Cc1ccc(S(=O)(=O)NC2CCCC2)cc1C(N)=O has solubility kinetic at least equal to 30 µg/mL.
Response: t

Query: I'd appreciate it if you could say whether O=C(CN1C(=O)c2ccccc2S1(=O)=O)NCCc1ccc(F)cc1 has solubility kinetic at least equal to 30 µg/mL.
Response: t

Query: I'd appreciate it if you could say whether CCC(=O)c1ccc(OCC(=O)Nc2nc(C)cs2)cc1 has solubility kinetic at least equal to 30 µg/mL.
Response: f

Query: I'd appreciate it if you could say whether Cl.Clc1ccccc1CSC1=NCCN1 has solubility kinetic at least equal to 30 µg/mL.
Response: t

Query: I'd appreciate it if you could say whether O=C(/C=C/c1ccc([N+](=O)[O-])cc1)Nc1cccc(S(=O)(=O)NC2=NCCCCC2)c1 has solubility kinetic at least equal to 30 µg/mL.
Response: f

Query: I'd appreciate it if you could say whether CCOC(=O)c1csc(NC(=O)c2ccc(OCC)cc2)n1 has solubility kinetic at least equal to 30 µg/mL.
Response: f

Query: I'd appreciate it if you could say whether COC(=O)c1ccc(NC(=O)C[n+]2ccccc2)cc1.[Cl-] has solubility kinetic at least equal to 30 µg/mL.
Response: t

Query: I'd appreciate it if you could say whether CC(C)(CNCc1ccccc1)NS(=O)(=O)c1ccc(Cl)cc1 has solubility kinetic at least equal to 30 µg/mL.
Response: t

Query: I'd appreciate it if you could say whether O=C(Nc1cc(Cl)ccc1N1CCOCC1)C1CC1 has solubility kinetic at least equal to 30 µg/mL.
Response: t

Query: I'd appreciate it if you could say whether O=C(NOCc1ccccc1)c1ccc(Cl)cc1 has solubility kinetic at least equal to 30 µg/mL.
Response: f

Query: I'd appreciate it if you could say whether O=C(NCCCNC(=O)c1ccccc1F)c1ccco1 has solubility kinetic at least equal to 30 µg/mL.
Response: t

Query: I'd appreciate it if you could say whether CCc1nc2oc3ccccc3c(=O)c2c(=O)n1-c1ccc(C)cc1 has solubility kinetic at least equal to 30 µg/mL.
Response: t

Query: I'd appreciate it if you could say whether CCOC(=O)N1CCN(C(=O)c2ccc3[nH]c(C)c(C)c3c2)CC1 has solubility kinetic at least equal to 30 µg/mL.
Response: t

Query: I'd appreciate it if you could say whether O=C(NCc1ccc(Cl)c(Cl)c1)C1CCCC1 has solubility kinetic at least equal to 30 µg/mL.
Response: t
